Target: MAP kinase-interacting serine/threonine-protein kinase 2 (Homo sapiens)
Sequence (Q9HBH9 whole entry, looked up): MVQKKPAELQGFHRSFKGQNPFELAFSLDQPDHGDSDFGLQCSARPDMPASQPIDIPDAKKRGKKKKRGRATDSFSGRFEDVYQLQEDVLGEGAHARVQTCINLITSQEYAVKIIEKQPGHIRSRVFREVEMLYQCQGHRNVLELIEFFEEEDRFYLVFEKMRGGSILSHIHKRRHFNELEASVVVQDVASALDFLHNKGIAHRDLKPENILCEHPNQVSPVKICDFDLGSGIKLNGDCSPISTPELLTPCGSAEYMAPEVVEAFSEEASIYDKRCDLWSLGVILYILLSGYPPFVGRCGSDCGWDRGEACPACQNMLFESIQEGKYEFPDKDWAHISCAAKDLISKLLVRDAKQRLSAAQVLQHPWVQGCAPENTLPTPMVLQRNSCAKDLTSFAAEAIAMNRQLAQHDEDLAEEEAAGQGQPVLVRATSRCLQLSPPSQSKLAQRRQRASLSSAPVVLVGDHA
Assay: Inhibition of MNK2 (unknown origin) at 100 nM incubated for 60 mins by HTRF assay
Assay Metric: inhibition (%)

// known answers, use as guide
Smiles Input	Measurement
Cc1cc(Nc2cc(N3CCNCC3)ncn2)c(=O)n2c1C(=O)NC21CCCCC1	87.7
Cc1cc(Nc2cc(C)c3n(c2=O)C2(CCCCC2)NC3=O)ccn1	45.2
Cc1cc(Nc2ccncn2)c(=O)n2c1C(=O)NC21CCCCC1	97.3
Cc1cc(Nc2cc(N3CCN(CCN(C)C)CC3)ncn2)c(=O)n2c1C(=O)NC21CCCCC1	89

1. Cc1cc(Nc2cc(N3CCN(C)CC3)ncn2)c(=O)n2c1C(=O)NC21CCCCC1
2. Cc1cc(Nc2cnccn2)c(=O)n2c1C(=O)NC21CCCCC1
Enquiry: Between 1 and 2 , which one shows the smaller inhibition number? Please respond with the label that marks your chosen entry.
Return: 2
